Taken from patent US20240398783A1.

- MEASURED_TARGET: TDP-43 binding to heparin (HS-GAG) (Homo sapiens, UniProt Q13148)
- Sequence (Q13148 whole entry): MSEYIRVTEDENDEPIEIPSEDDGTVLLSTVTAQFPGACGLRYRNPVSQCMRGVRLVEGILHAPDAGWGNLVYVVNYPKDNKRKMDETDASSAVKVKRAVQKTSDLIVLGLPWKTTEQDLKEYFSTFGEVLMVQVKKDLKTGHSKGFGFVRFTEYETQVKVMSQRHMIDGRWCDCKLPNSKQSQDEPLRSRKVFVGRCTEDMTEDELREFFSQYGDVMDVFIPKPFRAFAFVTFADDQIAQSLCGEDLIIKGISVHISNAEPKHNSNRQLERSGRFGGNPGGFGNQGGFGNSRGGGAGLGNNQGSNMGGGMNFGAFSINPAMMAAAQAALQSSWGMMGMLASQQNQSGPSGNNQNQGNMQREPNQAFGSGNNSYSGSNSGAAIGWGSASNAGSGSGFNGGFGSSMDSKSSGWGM
- TEST_SUMMARY: Inhibition of TDP-43 binding to immobilized heparin-BSA (ELISA)
- Design: species or system porcine
- TEST_SETTINGS: TDP43/Heparin Activity (IC-50), TDP-43, heparin-BSA
pIC50: −log10 of the molar value. Structures can show the parent of a compound that is named as a salt.
Parameter pIC50: see the listing below.

MOLECULE: C/C(=N\Nc1ncnc2cc(Cl)ccc12)c1ccc(-n2cnc(C)c2C)nc1 [Compound 16, phosphate]
MEASURED_TARGET: TDP-43 binding to heparin (HS-GAG) (Homo sapiens, UniProt Q13148)
pIC50: 5.67
//
MOLECULE: Fc1cc(/C=N/Nc2ccnc3cc(Cl)ccc23)ccc1-n1ccnc1 [Compound 35, hydrochloride]
MEASURED_TARGET: TDP-43 binding to heparin (HS-GAG) (Homo sapiens, UniProt Q13148)
pIC50: 4.81
//
MOLECULE: C/C(=N\Nc1ncnc2cc(Cl)ccc12)c1ccc(-n2cc[n+](C)c2)nc1 [Compound 17]
MEASURED_TARGET: TDP-43 binding to heparin (HS-GAG) (Homo sapiens, UniProt Q13148)
pIC50: 4.47
//
MOLECULE: Cc1ncn(-c2ccc(/C=N\Nc3ncnc4cc(Cl)ccc34)cn2)c1C [Compound 15, hydrochloride]
MEASURED_TARGET: TDP-43 binding to heparin (HS-GAG) (Homo sapiens, UniProt Q13148)
pIC50: 5.51
//
MOLECULE: C/C(=N\Nc1ncnc2cc(Cl)ccc12)c1cccc(N2CCN(C)CC2)c1 [Compound 30]
MEASURED_TARGET: TDP-43 binding to heparin (HS-GAG) (Homo sapiens, UniProt Q13148)
pIC50: 4.91
//
MOLECULE: C/C(=N\Nc1ncnc2ccccc12)c1ccc(-n2cc(C)nc2C)nc1 [Compound 19]
MEASURED_TARGET: TDP-43 binding to heparin (HS-GAG) (Homo sapiens, UniProt Q13148)
pIC50: 4.43
//
MOLECULE: CC(=NNc1ccnc2cc(Cl)ccc12)c1ccc(-n2ccnc2)cc1 [Compound 36, phosphate]
MEASURED_TARGET: TDP-43 binding to heparin (HS-GAG) (Homo sapiens, UniProt Q13148)
pIC50: 4.32
//
MOLECULE: Clc1ccc2c(N/N=C/c3ccc(-n4ccnc4)cc3)ccnc2c1 [Compound 38, dihydrochloride]
MEASURED_TARGET: TDP-43 binding to heparin (HS-GAG) (Homo sapiens, UniProt Q13148)
pIC50: 5.24
//
MOLECULE: C/C(=N\Nc1ncnc2cc(F)ccc12)c1ccc(-n2cc[n+](C)c2)nc1 [Compound 26]
MEASURED_TARGET: TDP-43 binding to heparin (HS-GAG) (Homo sapiens, UniProt Q13148)
pIC50: 4.48
//
MOLECULE: Clc1ccc2c(N/N=C/c3ccc(-n4cccn4)cc3)ccnc2c1 [Compound 3]
MEASURED_TARGET: TDP-43 binding to heparin (HS-GAG) (Homo sapiens, UniProt Q13148)
pIC50: 5.09
//
MOLECULE: Clc1ccc2c(Nc3ccc(-n4cncn4)nc3)ncnc2c1 [Compound 34]
MEASURED_TARGET: TDP-43 binding to heparin (HS-GAG) (Homo sapiens, UniProt Q13148)
pIC50: 5.28
//
MOLECULE: Cc1ncn(-c2ccc(/C=N/Nc3ccnc4cc(Cl)ccc34)cc2)c1C [Compound 2]
MEASURED_TARGET: TDP-43 binding to heparin (HS-GAG) (Homo sapiens, UniProt Q13148)
pIC50: 4.21
//
MOLECULE: C(=N\Nc1ccc2c3c(cccc13)CC2)/c1ccc(-n2ccnc2)cc1 [Compound 8]
MEASURED_TARGET: TDP-43 binding to heparin (HS-GAG) (Homo sapiens, UniProt Q13148)
pIC50: 4.97
//
MOLECULE: Fc1ccc2c(N/N=C/c3ccc(-n4ccnc4)cc3)ccnc2c1 [Compound 5]
MEASURED_TARGET: TDP-43 binding to heparin (HS-GAG) (Homo sapiens, UniProt Q13148)
pIC50: 4.15

====

- MEASURED_TARGET: Amyloid-beta(1-42) oligomer binding to heparin (HS-GAG) (Homo sapiens, UniProt P05067)
- Construct: Beta-amyloid (1-42) was purchased from rPeptide (Cat. No. A1163); purchased rPeptide A1163
- Sequence (P05067 672-713): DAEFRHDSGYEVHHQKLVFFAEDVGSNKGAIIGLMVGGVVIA
- TEST_SUMMARY: Inhibition of Amyloid-beta(1-42) oligomer binding to immobilized heparin-BSA (ELISA)
- Set-up: species or system porcine
- TEST_SETTINGS: read-out: Abeta42/Heparin Activity (% inhibition class)
Structures can show the parent of a compound that is named as a salt.
# key: entry, value: inhibition at 30 µM

MOLECULE: COc1cc2nccc(N/N=C/c3ccc(-n4ccnc4)c(OC)c3)c2cc1OC [Compound 13, phosphate]
inhibition at 30 µM: < 30%
//
MOLECULE: COc1ccc2c(NN=Cc3ccc(-n4ccnc4)c(C)c3)ccnc2c1
inhibition at 30 µM: < 30%
//
MOLECULE: C/C(=N\Nc1ncnc2cc(Cl)ccc12)c1cccc(N2CCN(C)CC2)c1
inhibition at 30 µM: > 30%
//
MOLECULE: CC(=NNc1ccnc2cc(Cl)ccc12)c1ccc(-n2cnc(C)c2C)nc1
inhibition at 30 µM: > 30%
//
MOLECULE: CN1CCN(c2cc(Nc3ccnc4cc(Cl)ccc34)ccn2)CC1
inhibition at 30 µM: < 30%
//
MOLECULE: Fc1ccc2c(N/N=C/c3ccc(-n4ccnc4)cc3)ccnc2c1
inhibition at 30 µM: < 30%
//
MOLECULE: C/C(=N\Nc1ncnc2cc(Cl)ccc12)c1ccc(-n2cc(C)nc2C)nc1 [Compound 27, hydrochloride]
inhibition at 30 µM: > 30%
//
MOLECULE: C/C(=N\Nc1ncnc2ccccc12)c1ccc(-n2cc(C)nc2C)nc1
inhibition at 30 µM: < 30%
//
MOLECULE: C/C(=N\Nc1ncnc2cc(F)ccc12)c1ccc(-n2cc[n+](C)c2)nc1
inhibition at 30 µM: > 30%
//
MOLECULE: C(=N\Nc1ccc2c3c(cccc13)CC2)/c1ccc(-n2ccnc2)cc1
inhibition at 30 µM: < 30%
//
MOLECULE: COc1cc2nccc(NN=Cc3ccc(-n4ccnc4)c(C)c3)c2cc1OC [Compound 11, hydrochloride]
inhibition at 30 µM: < 30%

====

- MEASURED_TARGET: SAA binding to purified THP-1 cell membranes (Homo sapiens, UniProt P0DJI8)
- Sequence (P0DJI8 19-122): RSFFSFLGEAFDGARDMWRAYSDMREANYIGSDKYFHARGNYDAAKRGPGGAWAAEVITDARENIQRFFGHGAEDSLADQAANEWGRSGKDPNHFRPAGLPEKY
- TEST_SUMMARY: Inhibition of SAA binding to purified cell membranes (ELISA)
- TEST_SETTINGS: purified cell membranes (THP-1 per Example 54), read-out: Serum Amyloid A/Membrane Activity (IC-50)
pIC50: −log10 of the molar value.

LINE_NOTATION: Clc1ccc2c(Nc3ccc(-n4ccnc4)nc3)ncnc2c1
pIC50: 4.88

LINE_NOTATION: CC(=NNc1ncnc2cc(Cl)ccc12)c1ccnc(-n2cnc(C)c2C)c1
pIC50: 4.64

LINE_NOTATION: C/C(=N\Nc1ncnc2cc(Cl)ccc12)c1ccc(-n2cc(C)nc2C)nc1
pIC50: 4.62

LINE_NOTATION: C/C(=N\Nc1ncnc2cc(F)ccc12)c1ccc(-n2cnc(C)c2C)nc1
pIC50: 4.32

LINE_NOTATION: C/C(=N\Nc1nncc2cc(Cl)ccc12)c1ccc(-n2cc(C)nc2C)nc1
pIC50: 5.09

LINE_NOTATION: Cc1cc(-n2ccnc2)ccc1/C=N/Nc1ccnc2cc(Cl)ccc12
pIC50: 4.91

====

As shown below, each of these compounds has a reported IC50 value.
- MEASURED_TARGET: Alpha-Synuclein Protofibril binding to heparin (HS-GAG) (Homo sapiens)
- TEST_SUMMARY: Inhibition of alpha-synuclein protofibril binding to immobilized heparin-BSA (ELISA)
- Set-up: species or system porcine
- TEST_SETTINGS: Alpha-Synuclein/Heparin Activity (IC-50), alpha-synuclein protofibrils, heparin-BSA
Where a name gives a salt, the structure may show the parent alone.
PROPERTY_MEASURED: IC50

COMPOUND: C/C(=N\Nc1ncnc2cc(Cl)ccc12)c1ccc(-n2cnc(C)c2C)nc1 [Compound 16, phosphate]
ASSAY_RESULT: 3.21 µM
//
COMPOUND: CC(=NNc1ccnc2cc(Cl)ccc12)c1ccc(-n2ccnc2)cc1 [Compound 36, phosphate]
ASSAY_RESULT: 4.17 µM
//
COMPOUND: C/C(=N\Nc1ncnc2cc(Cl)ccc12)c1ccc(-n2cc[n+](C)c2)nc1
ASSAY_RESULT: 13.5 µM
//
COMPOUND: Clc1ccc2c(N/N=C/c3ccc(-n4ccnc4)cc3)ccnc2c1 [Compound 38, dihydrochloride]
ASSAY_RESULT: 1.88 µM
//
COMPOUND: Clc1ccc2c(Nc3ccc(-n4cncn4)nc3)ccnc2c1
ASSAY_RESULT: 19.2 µM
